Below: a set of entries, each annotated with reported solubility.
# ASSAY_SUMMARY: Aqueous solubility at pH 7.4
# Type: physicochemical
# SETTINGS: aqueous medium
Numbered stars: 1 amine (or outer) side, 2 acyl side, 3 side chain; on linkers, the order of the positions; unused ones are H or OH. Square brackets hold non-standard residues; d marks the D form. Peptide text beside a SMILES is read from it. * marks the point of attachment. ξ: configuration not given here. Doxorubicin(3'-N) = COc1cccc2c1C(=O)c1c(O)c3c(c(O)c1C2=O)C[C@@](O)(C(=O)CO)C[C@@H]3O[C@H]1C[C@H](N*)[C@H](O)[C@H](C)O1; X6 = CN1CCN(CCCC(N[*:1])C(=O)[*:2])CC1; X2 = O=C(C(CCc1ccncc1)N[*:1])[*:2]; hPhe = N[C@@H](CCc1ccccc1)C(=O)O; Suc = O=C(CCC(=O)[*:2])[*:1]; ξP = O=C(O)C1CCCN1; Bn = c1ccc(C*)cc1
Express your answer in µg/mL, writing the number without its unit.

MOLECULE: COc1cccc2c1C(=O)c1c(O)c3c(c(O)c1C2=O)C[C@@](O)(C(=O)CO)C[C@@H]3O[C@H]1C[C@H](NC(=O)[C@H](CC(C)C)NC(=O)C(CCCN2CCN(C)CC2)NC(=O)[C@H](CCc2ccccc2)NC(=O)CNC(=O)[C@H](CC(C)C)NC(=O)[C@@H]2CCCN2C(C)=O)[C@H](O)[C@H](C)O1 (stereo partly drawn) (Ac-PLG[hPhe][X6]L-{Doxorubicin(3'-N)})
UNIT_NAME: µg/mL
NUMERIC_VALUE: 130

MOLECULE: COc1cccc2c1C(=O)c1c(O)c3c(c(O)c1C2=O)C[C@@](O)(C(=O)CO)C[C@@H]3O[C@H]1C[C@H](NC(=O)[C@H](CC(C)C)NC(=O)[C@H](Cc2ccc(O)cc2)NC(=O)[C@H](COCc2ccccc2)NC(=O)CNC(=O)[C@H](CC(C)C)NC(=O)C2CCCN2C(=O)CCC(=O)O)[C@H](O)[C@H](C)O1 (some centres not stated) (Suc-[ξP]LGS(Bn)YL-{Doxorubicin(3'-N)})
UNIT_NAME: µg/mL
NUMERIC_VALUE: 1400

MOLECULE: COC[C@H](NC(=O)CNC(=O)[C@H](CC(C)C)NC(=O)[C@@H]1CCCN1C(C)=O)C(=O)N[C@@H](Cc1ccc(O)cc1)C(=O)N[C@@H](CC(C)C)C(=O)N[C@H]1C[C@H](O[C@H]2C[C@](O)(C(=O)CO)Cc3c(O)c4c(c(O)c32)C(=O)c2c(OC)cccc2C4=O)O[C@@H](C)[C@H]1O (Ac-PLGS(Me)YL-{Doxorubicin(3'-N)})
UNIT_NAME: µg/mL
NUMERIC_VALUE: 40

Next, consider the following molecule.
Consider the molecule COc1cccc2c1C(=O)c1c(O)c3c(c(O)c1C2=O)C[C@@](O)(C(=O)CO)C[C@@H]3O[C@H]1C[C@H](NC(=O)[C@H](CC(C)C)NC(=O)[C@H](Cc2ccc(O)cc2)NC(=O)C(CCc2ccncc2)NC(=O)CNC(=O)[C@H](CC(C)C)NC(=O)[C@@H]2CCCN2C(C)=O)[C@H](O)[C@H](C)O1 (some centres not stated) (Ac-PLG[X2]YL-{Doxorubicin(3'-N)}) and give its measured solubility.
380

* * *

Below: a set of entries, each annotated with reported remaining at 6 h.
# ASSAY_SUMMARY: Compound remaining in mouse blood after 6 hrs
# Type: ADME, tissue-based
# SETTINGS: read-out: Stability
Numbered stars: 1 amine (or outer) side, 2 acyl side, 3 side chain; on linkers, the order of the positions; unused ones are H or OH. Square brackets hold non-standard residues; d marks the D form. Peptide text beside a SMILES is read from it. * marks the point of attachment. ξ: configuration not given here. Doxorubicin(3'-N) = COc1cccc2c1C(=O)c1c(O)c3c(c(O)c1C2=O)C[C@@](O)(C(=O)CO)C[C@@H]3O[C@H]1C[C@H](N*)[C@H](O)[C@H](C)O1; X6 = CN1CCN(CCCC(N[*:1])C(=O)[*:2])CC1; hTyr = N[C@@H](CCc1ccc(O)cc1)C(=O)O; X2 = O=C(C(CCc1ccncc1)N[*:1])[*:2]; hPhe = N[C@@H](CCc1ccccc1)C(=O)O; Cit = NC(=O)NCCC[C@H](N)C(=O)O; Suc = O=C(CCC(=O)[*:2])[*:1]; X5 = O=C(CS(=O)(=O)O)*; ξP = O=C(O)C1CCCN1; Bn = c1ccc(C*)cc1
Express your answer in %, writing the number without its unit.

Some entries whose results are on file:
MOLECULE: COc1cccc2c1C(=O)c1c(O)c3c(c(O)c1C2=O)C[C@@](O)(C(=O)CO)C[C@@H]3O[C@H]1C[C@H](NC(=O)[C@H](CC(C)C)NC(=O)[C@H](CCc2ccc(O)cc2)NC(=O)[C@H](CCc2ccccc2)NC(=O)CNC(=O)[C@H](CC(C)C)NC(=O)[C@@H]2CCCN2C(C)=O)[C@H](O)[C@H](C)O1 (Ac-PLG[hPhe][hTyr]L-{Doxorubicin(3'-N)})
NUMERIC_VALUE: 13
--
MOLECULE: COc1cccc2c1C(=O)c1c(O)c3c(c(O)c1C2=O)C[C@@](O)(C(=O)CO)C[C@@H]3O[C@H]1C[C@H](NC(=O)[C@H](CC(C)C)NC(=O)[C@H](Cc2ccc(O)cc2)NC(=O)[C@H](COCc2ccccc2)NC(=O)CNC(=O)[C@H](CCCNC(N)=O)NC(=O)[C@@H]2CCCN2C(=O)CS(=O)(=O)O)[C@H](O)[C@H](C)O1 (X5-P[Cit]GS(Bn)YL-{Doxorubicin(3'-N)})
NUMERIC_VALUE: 29
--
MOLECULE: COc1cccc2c1C(=O)c1c(O)c3c(c(O)c1C2=O)C[C@@](O)(C(=O)CO)C[C@@H]3O[C@H]1C[C@H](NC(=O)[C@H](CC(C)C)NC(=O)[C@H](Cc2ccc(O)cc2)NC(=O)[C@H](COCc2ccccc2)NC(=O)CNC(=O)[C@H](CC(C)C)NC(=O)C2CCCN2C(=O)CCC(=O)O)[C@H](O)[C@H](C)O1 (stereo partly specified) (Suc-[ξP]LGS(Bn)YL-{Doxorubicin(3'-N)})
NUMERIC_VALUE: 100
--
MOLECULE: COC[C@H](NC(=O)CNC(=O)[C@H](CC(C)C)NC(=O)[C@@H]1CCCN1C(C)=O)C(=O)N[C@@H](Cc1ccc(O)cc1)C(=O)N[C@@H](CC(C)C)C(=O)N[C@H]1C[C@H](O[C@H]2C[C@](O)(C(=O)CO)Cc3c(O)c4c(c(O)c32)C(=O)c2c(OC)cccc2C4=O)O[C@@H](C)[C@H]1O (Ac-PLGS(Me)YL-{Doxorubicin(3'-N)})
NUMERIC_VALUE: 31
--
MOLECULE: COc1cccc2c1C(=O)c1c(O)c3c(c(O)c1C2=O)C[C@@](O)(C(=O)CO)C[C@@H]3O[C@H]1C[C@H](NC(=O)[C@H](CC(C)C)NC(=O)C(CCCN2CCN(C)CC2)NC(=O)[C@H](CCc2ccccc2)NC(=O)CNC(=O)[C@H](CC(C)C)NC(=O)[C@@H]2CCCN2C(C)=O)[C@H](O)[C@H](C)O1 (stereo partly drawn) (Ac-PLG[hPhe][X6]L-{Doxorubicin(3'-N)})
NUMERIC_VALUE: 100

Consider the molecule COc1cccc2c1C(=O)c1c(O)c3c(c(O)c1C2=O)C[C@@](O)(C(=O)CO)C[C@@H]3O[C@H]1C[C@H](NC(=O)[C@H](CC(C)C)NC(=O)[C@H](Cc2ccc(O)cc2)NC(=O)C(CCc2ccncc2)NC(=O)CNC(=O)[C@H](CC(C)C)NC(=O)[C@@H]2CCCN2C(C)=O)[C@H](O)[C@H](C)O1 (stereo partly specified) (Ac-PLG[X2]YL-{Doxorubicin(3'-N)}) and give its measured remaining at 6 h.
59

* * *

# TARGET_OR_SYSTEM: UniProt:P08473
# Sequence (P08473 whole entry): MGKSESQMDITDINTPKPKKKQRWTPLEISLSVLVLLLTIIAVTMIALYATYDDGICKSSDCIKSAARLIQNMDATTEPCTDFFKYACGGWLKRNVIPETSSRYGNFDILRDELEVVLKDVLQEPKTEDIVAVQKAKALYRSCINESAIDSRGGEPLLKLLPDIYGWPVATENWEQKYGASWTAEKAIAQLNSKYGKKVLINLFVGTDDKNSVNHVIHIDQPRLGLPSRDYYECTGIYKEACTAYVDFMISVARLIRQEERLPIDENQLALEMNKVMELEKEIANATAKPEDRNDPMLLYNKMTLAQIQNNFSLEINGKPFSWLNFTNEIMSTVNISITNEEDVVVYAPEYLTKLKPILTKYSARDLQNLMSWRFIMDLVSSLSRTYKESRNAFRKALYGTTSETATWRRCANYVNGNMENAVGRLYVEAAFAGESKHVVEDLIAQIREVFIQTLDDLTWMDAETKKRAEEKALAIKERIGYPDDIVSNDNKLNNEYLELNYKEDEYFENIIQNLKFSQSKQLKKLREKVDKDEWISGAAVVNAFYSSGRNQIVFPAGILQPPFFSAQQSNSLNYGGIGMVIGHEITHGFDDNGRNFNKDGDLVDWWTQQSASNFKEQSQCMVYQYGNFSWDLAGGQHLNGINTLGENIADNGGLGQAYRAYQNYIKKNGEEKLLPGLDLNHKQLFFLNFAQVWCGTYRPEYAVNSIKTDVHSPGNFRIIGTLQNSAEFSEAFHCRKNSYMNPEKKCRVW
# ASSAY_SUMMARY: Ratio Kcat to […] for neprilysin
Numbered stars: 1 amine (or outer) side, 2 acyl side, 3 side chain; on linkers, the order of the positions; unused ones are H or OH. Square brackets hold non-standard residues; d marks the D form. Peptide text beside a SMILES is read from it. * marks the point of attachment. Doxorubicin(3'-N) = COc1cccc2c1C(=O)c1c(O)c3c(c(O)c1C2=O)C[C@@](O)(C(=O)CO)C[C@@H]3O[C@H]1C[C@H](N*)[C@H](O)[C@H](C)O1; X2 = O=C(C(CCc1ccncc1)N[*:1])[*:2]; hPhe = N[C@@H](CCc1ccccc1)C(=O)O; X5 = O=C(CS(=O)(=O)O)*; Bn = c1ccc(C*)cc1
MEASURE: Ratio

Some entries whose results are on file:
MOLECULE: COc1cccc2c1C(=O)c1c(O)c3c(c(O)c1C2=O)C[C@@](O)(C(=O)CO)C[C@@H]3O[C@H]1C[C@H](NC(=O)[C@H](CC(C)C)NC(=O)[C@H](C)NC(=O)[C@H](CCc2ccccc2)NC(=O)CNC(=O)[C@H](CC(C)C)NC(=O)[C@@H]2CCCN2C(C)=O)[C@H](O)[C@H](C)O1 (Ac-PLG[hPhe]AL-{Doxorubicin(3'-N)})
RESULT: 1
//
MOLECULE: COc1cccc2c1C(=O)c1c(O)c3c(c(O)c1C2=O)C[C@@](O)(C(=O)CO)C[C@@H]3O[C@H]1C[C@H](NC(=O)[C@H](CC(C)C)NC(=O)[C@H](Cc2ccc(O)cc2)NC(=O)[C@H](COCc2ccccc2)NC(=O)CNC(=O)[C@H](CC(C)C)NC(=O)[C@@H]2CCCN2C(=O)CS(=O)(=O)O)[C@H](O)[C@H](C)O1 (X5-PLGS(Bn)YL-{Doxorubicin(3'-N)})
RESULT: < 1

Next, consider the following molecule.
Consider the molecule COc1cccc2c1C(=O)c1c(O)c3c(c(O)c1C2=O)C[C@@](O)(C(=O)CO)C[C@@H]3O[C@H]1C[C@H](NC(=O)[C@H](CC(C)C)NC(=O)[C@H](Cc2ccc(O)cc2)NC(=O)C(CCc2ccncc2)NC(=O)CNC(=O)[C@H](CC(C)C)NC(=O)[C@@H]2CCCN2C(C)=O)[C@H](O)[C@H](C)O1 (stereo partly drawn) (Ac-PLG[X2]YL-{Doxorubicin(3'-N)}) and give its measured Ratio.
< 1
